biological target: T1, Bio-P19 member A2E-7 (chain 2 (heavy): C-terminal BirA substrate peptide, biotinylated there by BirA; tag letters not given, left out); test: phage ELISA, streptavidin plate, anti-M13-HRP
T1 construct: also called biotinylated control peptide A2E-7/HLA-A*02:01 monomer; not shown: BirA substrate peptide (BSP) tag at the C-terminus of the heavy chain
T1 sequence (b2m, as listed by the source): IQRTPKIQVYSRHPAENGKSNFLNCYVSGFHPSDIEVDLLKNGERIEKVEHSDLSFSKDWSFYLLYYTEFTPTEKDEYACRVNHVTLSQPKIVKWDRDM

{"binder": "PSA146/HLA-A*02:01-specific scFv phage clone #5 (scFv, V domains shown) VH: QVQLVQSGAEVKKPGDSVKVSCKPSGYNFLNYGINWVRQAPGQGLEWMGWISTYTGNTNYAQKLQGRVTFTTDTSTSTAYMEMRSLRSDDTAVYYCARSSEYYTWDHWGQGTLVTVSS VL: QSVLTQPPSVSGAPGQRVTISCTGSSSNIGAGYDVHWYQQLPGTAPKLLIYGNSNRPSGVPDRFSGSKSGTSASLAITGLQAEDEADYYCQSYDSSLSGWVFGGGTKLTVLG", "binding result": "no binding"}
{"binder": "PSA146/HLA-A*02:01-specific scFv phage clone #9 (scFv, V domains shown) VH: QVQLVQSGAEVKKPGASVKVSCKASGYTFTSYGISWVRQAPGQGLEWMGWISAYNGNTNYAQKLQGRVTMTTDTSTSTAYMELRSLRSDDTAVYYCARSSQYYVWDSWGQGTLVTVSS VL: QSVVTQPPSVSGAPGQRVTISCTGSSSNFGAGYDVHWYQQLPGTAPKLLIYGNSNRPSGVPDRFSGSKSGTSASLAITGLQAEDEADYYCQSYDSSLSGWVFGGGTKLTVLG", "binding result": "no binding"}
{"binder": "PSA146/HLA-A*02:01-specific scFv phage clone #14 (scFv, V domains shown) VH: EVQLVQSGAEVKKPGASVKVSCKASGYTFTGYFMHWVRQAPGQGLEWMGGFDPEDGETIYAQKFQGRVTMTEDTSTDTAYMELSSLRSEDTAVYYCARYSYDLWGQGTLVTVSS VL: QTVVTQEPSLTVSPGGTVTLTCASSTGAVTSGYYPNWFQQKPGQAPRALIYSTSNKHSWTPARFSGSLLGGKAALTLSGVQPEDEAEYYCLLYYGGAQWVFGGGTKLTVLG", "binding result": "no binding"}
